All values here come from ChEMBL document CHEMBL5291721.

- Tested System: Alpha-2A adrenergic receptor (Homo sapiens); also: assay procedure not described here
- Sequence (P08913 whole entry): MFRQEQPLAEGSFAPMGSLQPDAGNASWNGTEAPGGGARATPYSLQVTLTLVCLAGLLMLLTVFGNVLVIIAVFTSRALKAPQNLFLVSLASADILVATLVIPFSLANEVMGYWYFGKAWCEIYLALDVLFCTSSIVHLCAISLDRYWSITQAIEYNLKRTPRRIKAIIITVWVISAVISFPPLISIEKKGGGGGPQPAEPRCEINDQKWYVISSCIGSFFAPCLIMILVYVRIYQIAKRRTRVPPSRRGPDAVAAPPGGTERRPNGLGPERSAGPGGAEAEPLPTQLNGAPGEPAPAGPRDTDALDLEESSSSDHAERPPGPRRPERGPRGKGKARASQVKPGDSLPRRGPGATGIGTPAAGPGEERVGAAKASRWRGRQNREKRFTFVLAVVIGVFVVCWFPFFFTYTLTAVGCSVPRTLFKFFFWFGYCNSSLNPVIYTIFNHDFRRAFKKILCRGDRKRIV
- Type: functional, cell-based
AC50 listing for selected compounds.
Observed Property: AC50

{"Compound": "C[C@H](CSC(=O)c1ccccc1)C(=O)N1C[C@@H](Sc2ccccc2)C[C@H]1C(=O)O", "Observed Property": "AC50", "Experimental Value": "> 10 µM"}
{"Compound": "O=C(NCCN1CCOCC1)c1ccc(Cl)cc1 [MOCLOBEMIDE]", "Observed Property": "AC50", "Experimental Value": "> 10 µM"}
{"Compound": "COc1ccccc1OCCNCC(O)c1ccc(C)c(S(N)(=O)=O)c1 (stereo not given)", "Observed Property": "AC50", "Experimental Value": "9.1 µM"}
{"Compound": "Cc1c(C(=O)NN2CCCCC2)nn(-c2ccc(Cl)cc2Cl)c1-c1ccc(Cl)cc1", "Observed Property": "AC50", "Experimental Value": "> 30 µM"}
{"Compound": "N[C@@H]1[C@H]2CN(c3nc4c(cc3F)c(=O)c(C(=O)O)cn4-c3ccc(F)cc3F)C[C@@H]12", "Observed Property": "AC50", "Experimental Value": "> 30 µM"}

###

Form: system (Adenosine receptor A3 (Homo sapiens, UniProt P0DMS8)), quantity (AC50), values below. Also: assay procedure not described here.
Observed Property: AC50

{"Molecule": "CC1(C)NC(=O)N(c2ccc([N+](=O)[O-])c(C(F)(F)F)c2)C1=O [NILUTAMIDE]", "Experimental Value": "> 30 µM"}
{"Molecule": "C=CCC1(C(C)CC)C(=O)NC(=O)NC1=O (stereo not drawn) [TALBUTAL]", "Experimental Value": "> 10 µM"}
{"Molecule": "C[C@]12CCC(=O)C=C1CC[C@@H]1[C@@H]2[C@@H](O)C[C@@]2(C)[C@H]1CC[C@]2(O)C(=O)CO [HYDROCORTISONE]", "Experimental Value": "> 30 µM"}
{"Molecule": "C#C[C@]1(O)CC[C@H]2[C@@H]3CCC4=Cc5oncc5C[C@]4(C)[C@H]3CC[C@@]21C [DANAZOL]", "Experimental Value": "> 30 µM"}
{"Molecule": "CC1(C)CCC(CN2CCN(c3ccc(C(=O)NS(=O)(=O)c4ccc(NCC5CCOCC5)c([N+](=O)[O-])c4)c(Oc4cnc5[nH]ccc5c4)c3)CC2)=C(c2ccc(Cl)cc2)C1 [VENETOCLAX]", "Experimental Value": "2.3 µM"}
{"Molecule": "C=CCC1(CC(C)C)C(=O)NC(=O)NC1=O [BUTALBITAL]", "Experimental Value": "> 10 µM"}
{"Molecule": "COc1cc2nc(N3CCN(C(=O)c4ccco4)CC3)nc(N)c2cc1OC [PRAZOSIN]", "Experimental Value": "> 30 µM"}
{"Molecule": "O=C(OCC(O)CO)c1ccccc1Nc1ccnc2cc(Cl)ccc12 (stereo not drawn) [GLAFENINE]", "Experimental Value": "7.2 µM"}

###

- Tested System: Alpha-1A adrenergic receptor (Homo sapiens, UniProt P35348); also: assay procedure not described here
- Sequence (P35348 whole entry): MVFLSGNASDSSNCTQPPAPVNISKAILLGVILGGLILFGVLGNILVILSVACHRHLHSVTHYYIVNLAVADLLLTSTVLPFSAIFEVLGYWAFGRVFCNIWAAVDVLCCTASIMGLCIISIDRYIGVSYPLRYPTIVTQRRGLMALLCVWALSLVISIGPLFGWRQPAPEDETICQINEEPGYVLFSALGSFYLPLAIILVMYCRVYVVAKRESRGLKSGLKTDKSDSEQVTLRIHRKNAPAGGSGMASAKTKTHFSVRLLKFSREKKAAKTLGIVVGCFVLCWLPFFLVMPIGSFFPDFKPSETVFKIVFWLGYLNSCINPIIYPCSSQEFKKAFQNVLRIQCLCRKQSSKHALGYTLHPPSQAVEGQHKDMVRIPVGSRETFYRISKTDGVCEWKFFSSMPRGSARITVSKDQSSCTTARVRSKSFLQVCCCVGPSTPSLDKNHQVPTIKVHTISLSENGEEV

{"Molecule": "CNS(=O)(=O)Cc1ccc2[nH]cc(CCN(C)C)c2c1", "AC50": "> 30 µM"}
{"Molecule": "CN1C(=O)CCS(=O)(=O)C1c1ccc(Cl)cc1 (stereo unspecified)", "AC50": "> 30 µM"}
{"Molecule": "COC(=O)C1=C(C)NC(C)=C(C(=O)OC(C)(C)CN(C)CCC(c2ccccc2)c2ccccc2)C1c1cccc([N+](=O)[O-])c1 (stereo unspecified)", "AC50": "5.7 µM"}
{"Molecule": "Cc1ccc(S(=O)(=O)NC(=O)NN2CC3CCCC3C2)cc1 (stereo unspecified) [GLICLAZIDE]", "AC50": "> 30 µM"}
{"Molecule": "Cc1nnc2n1-c1ccc(Cl)cc1C(c1ccccc1Cl)=NC2", "AC50": "> 10 µM"}
{"Molecule": "O=P1(NCCCl)OCCCN1CCCl (stereo unspecified) [IFOSFAMIDE]", "AC50": "> 30 µM"}
{"Molecule": "O=C(O)C[C@H](O)C[C@H](O)/C=C/c1c(C2CC2)nc2ccccc2c1-c1ccc(F)cc1", "AC50": "> 10 µM"}
{"Molecule": "C=CCC1(C(C)CC)C(=O)NC(=O)NC1=O (stereo unspecified)", "AC50": "> 10 µM"}
{"Molecule": "COc1ccccc1N1CCN(CC(O)COc2cccc3ccccc23)CC1 (stereo unspecified)", "AC50": "0.543 µM"}
{"Molecule": "Cc1c(C(=O)NN2CCCCC2)nn(-c2ccc(Cl)cc2Cl)c1-c1ccc(Cl)cc1", "AC50": "> 10 µM"}
{"Molecule": "CC[C@H]1CN2CCc3cc(OC)c(OC)cc3[C@@H]2C[C@@H]1C[C@H]1NCCc2cc(OC)c(OC)cc21", "AC50": "6 µM"}

###

The following are reported AC50 results, target or system Gamma-aminobutyric acid receptor subunit alpha-1 (Rattus norvegicus). Also: assay procedure not described here.
Observed Property: AC50

{"Compound": "COC1=C(OC)C(=O)C(C/C=C(\\C)CC/C=C(\\C)CC/C=C(\\C)CC/C=C(\\C)CC/C=C(\\C)CC/C=C(\\C)CC/C=C(\\C)CC/C=C(\\C)CC/C=C(\\C)CCC=C(C)C)=C(C)C1=O [UBIDECARENONE]", "Observed Property": "AC50", "Experimental Value": "> 30 µM"}
{"Compound": "C[C@]1(O)CC[C@H]2[C@@H]3CCC4=CC(=O)CC[C@]4(C)[C@@]3(F)[C@@H](O)C[C@@]21C [FLUOXYMESTERONE]", "Observed Property": "AC50", "Experimental Value": "> 10 µM"}
{"Compound": "CN1C(=O)OC(C)(C)C1=O [TRIMETHADIONE]", "Observed Property": "AC50", "Experimental Value": "> 10 µM"}
{"Compound": "Cc1cccc(C(C)c2cnc[nH]2)c1C (centres undefined) [MEDETOMIDINE]", "Observed Property": "AC50", "Experimental Value": "> 10 µM"}
{"Compound": "O=C(NCCNCC(O)COc1ccc(O)cc1)N1CCOCC1 (centres undefined) [XAMOTEROL]", "Observed Property": "AC50", "Experimental Value": "> 30 µM"}
{"Compound": "CS(=O)(=O)c1ccc(C2=C(c3ccccc3)C(=O)OC2)cc1 [ROFECOXIB]", "Observed Property": "AC50", "Experimental Value": "> 10 µM"}
{"Compound": "O=C1C(O)=C([C@H]2CC[C@H](c3ccc(Cl)cc3)CC2)C(=O)c2ccccc21 [ATOVAQUONE]", "Observed Property": "AC50", "Experimental Value": "> 30 µM"}
{"Compound": "COc1ccccc1OCC(O)CN1CCN(CC(=O)Nc2c(C)cccc2C)CC1 (centres undefined) [RANOLAZINE]", "Observed Property": "AC50", "Experimental Value": "> 30 µM"}
{"Compound": "COc1cc2nc(N(C)CCCNC(=O)C3CCCO3)nc(N)c2cc1OC (centres undefined) [ALFUZOSIN]", "Observed Property": "AC50", "Experimental Value": "> 30 µM"}
{"Compound": "CCCSc1ccc2nc(NC(=O)OC)[nH]c2c1 [ALBENDAZOLE]", "Observed Property": "AC50", "Experimental Value": "> 10 µM"}
{"Compound": "C=CCC1(CC(C)C)C(=O)NC(=O)NC1=O [BUTALBITAL]", "Observed Property": "AC50", "Experimental Value": "> 10 µM"}
{"Compound": "NCC(=O)CCC(=O)O [AMINOLEVULINIC ACID]", "Observed Property": "AC50", "Experimental Value": "> 30 µM"}
{"Compound": "O=C(O)CCCCCCNC1c2ccccc2CCc2ccccc21 [AMINEPTINE]", "Observed Property": "AC50", "Experimental Value": "> 30 µM"}
{"Compound": "O=C1Nc2ccc(Cl)cc2[C@@](C#CC2CC2)(C(F)(F)F)O1 [EFAVIRENZ]", "Observed Property": "AC50", "Experimental Value": "> 10 µM"}
{"Compound": "CCOC(=O)[N-]c1cn(N2CCOCC2)n[o+]1 [MOLSIDOMINE]", "Observed Property": "AC50", "Experimental Value": "> 30 µM"}
{"Compound": "CC(C)(C)c1cc(C(C)(C)C)c(NC(=O)c2c[nH]c3ccccc3c2=O)cc1O [IVACAFTOR]", "Observed Property": "AC50", "Experimental Value": "> 10 µM"}
{"Compound": "Clc1ccc(C(c2ccccc2Cl)C(Cl)Cl)cc1 (centres undefined) [MITOTANE]", "Observed Property": "AC50", "Experimental Value": "> 10 µM"}
{"Compound": "NS(=O)(=O)Cc1noc2ccccc12 [ZONISAMIDE]", "Observed Property": "AC50", "Experimental Value": "> 10 µM"}
{"Compound": "Cc1cn([C@H]2C=C[C@@H](CO)O2)c(=O)[nH]c1=O [STAVUDINE]", "Observed Property": "AC50", "Experimental Value": "> 10 µM"}
